Hey, just so you know, these numbers are from patent US9725430B2.

Dear all, this message contains pIC50 results, target or system PTP1B (Homo sapiens (Human)).
pIC50: −log10 of the molar value.
measure-name: pIC50

compound: CCc1oc2ccccc2c1C(=O)c1cc(Br)c(O)c(Br)c1 [Compound 1, Benzbromarone, reference compound]
pIC50: 4.27
//
compound: CCCCc1oc2ccccc2c1C(=O)c1ccc(O)cc1 [Compound 1b]
pIC50: 4.15

###

biological target: UniProt:Q99504; test: pNPP assay, full-length human recombinant EYA3; conditions: pNPP substrate, full-length EYA3
Sequence (Q99504 127-573): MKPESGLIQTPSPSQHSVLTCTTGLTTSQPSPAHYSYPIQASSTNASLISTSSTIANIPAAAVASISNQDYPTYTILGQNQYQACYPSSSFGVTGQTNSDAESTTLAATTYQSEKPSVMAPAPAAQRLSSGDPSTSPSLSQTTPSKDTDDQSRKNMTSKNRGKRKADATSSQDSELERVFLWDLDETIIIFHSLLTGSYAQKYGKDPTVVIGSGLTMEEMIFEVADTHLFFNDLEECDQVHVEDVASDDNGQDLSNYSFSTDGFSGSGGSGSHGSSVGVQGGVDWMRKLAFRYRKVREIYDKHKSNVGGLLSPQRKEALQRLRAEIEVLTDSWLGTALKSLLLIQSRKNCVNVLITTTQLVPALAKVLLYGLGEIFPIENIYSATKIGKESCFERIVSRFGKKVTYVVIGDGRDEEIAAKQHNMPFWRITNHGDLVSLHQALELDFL
measure-name: IC50 (µM)

Take a look at these entries with their results.
molecule: CC(O)Cc1oc2ccccc2c1C(=O)c1cc(I)c(O)c(I)c1 (stereo not shown)
tgt: UniProt:Q99504
units-of-measure: µM
IC50: 13.8
//
molecule: Cc1oc2ccccc2c1C(=O)c1ccc(O)cc1
tgt: UniProt:Q99504
units-of-measure: µM
IC50: 81.1
//
molecule: Cc1oc2ccccc2c1C(=O)c1cc(I)c(O)c(I)c1
tgt: UniProt:Q99504
units-of-measure: µM
IC50: 8.3

[a] CCc1oc2ccc(O)cc2c1C(=O)c1cc(Br)c(O)c(Br)c1
[b] CCc1oc2ccccc2c1C(=O)c1ccc(O)cc1
Query string: Select one. Lower IC50: a or b Refer to your chosen item by its label in the answer.
Result string: b

[P] CC(O)c1oc2ccccc2c1C(=O)c1cc(Br)c(O)c(Br)c1 (stereo not shown)
[Q] CCc1oc2ccccc2c1C(=O)c1cc(I)c(O)c(I)c1
[R] Cc1oc2ccccc2c1C(=O)c1ccc(O)c(I)c1
[S] CCc1oc2ccc(O)cc2c1C(=O)c1ccc(O)cc1
[T] CCc1oc2cc(O)ccc2c1C(=O)c1cc(Br)c(O)c(Br)c1
Query string: Ranking field: IC50; order: falling. In plain terms: list the labels in the order you were asked to.
Result string: S, P, T, R, Q
(S: 73.1 µM, P: 41.9 µM, T: 27.2 µM, R: 17.5 µM, Q: 3.4 µM)
